Items are presented alongside their recorded MIC Pseudomonas aeruginosa I.F.O..
System: Pseudomonas aeruginosa I.F.O.
Assay: MIC, plate method, standard strains
Assay type: cell-based
Details: Table 4, standard strain; unit assumed
Method: The minimum inhibitory concentration (MIC) was determined by the plate method disclosed in "Chemotherapy" (Japan), Vol. 16, (1968), pages 98-99. The culture medium used was a Heart infusion agar (pH 7.4). The number of the cells per plate used in the inoculum was 10^4 (10^6 cells/ml).
Response body: numeric value in mg/L, unit text excluded.

Fill in the blank: the reported MIC Pseudomonas aeruginosa I.F.O. of Cc1csc(SCC2=C(C(=O)O)N3C(=O)C(NC(=O)C(NC(=O)N4CCN(C)C(=O)C4=O)c4ccccc4)C3SC2)n1 (single isomer, unassigned) is ____.
50

Another molecule to check: CCN1CCN(C(=O)NC(C(=O)NC2C(=O)N3C(C(=O)O)=C(CSc4nnnn4CC)CSC23)c2ccccc2)C(=O)C1=O (single isomer, unassigned)
25

Another molecule to check: Cn1nnnc1SCC1=C(C(=O)O)N2C(=O)C(NC(=O)C(NC(=O)N3CCN(CCO)C(=O)C3=O)c3ccccc3)C2SC1 (single isomer, unassigned)
25

Another molecule to check: CCN1CCN(C(=O)NC(C(=O)NC2C(=O)N3C(C(=O)O)=C(COC(C)=O)CSC23)c2ccc(O)cc2)C(=O)C1=O (single isomer, unassigned)
12.5

Could you now consider this next molecule?
Fill in the blank: the reported MIC Pseudomonas aeruginosa I.F.O. of O=C(Cc1cccs1)N[C@@H]1C(=O)N2C(C(=O)[O-])=C(C[n+]3ccccc3)CS[C@H]12 [drawing 250, reference compound] is ____.
200
